These entries and their values trace back to patent US20220041641A1.

assay: Caco-2 permeability assay; format: in vitro ADME; details: human, Caco-2, pH 7.4
MEASURED PROPERTY: Papp A→B at 2 h, 1 µM (×10⁻⁶ cm/s)
Answer format: numeric, ×10⁻⁶ cm/s implied, no suffix.

Example cases with answers are listed next.
C#CC[N+](C)(C)CCO[C@@H]1O[C@H](COC(C)=O)[C@@H](OC(C)=O)[C@H](OC(C)=O)[C@H]1OC(C)=O.[I-] [Compound 7]    0.1
CC(=O)OC[C@H]1O[C@@H](OCC[N+](C)(C)C2CC2)[C@H](OC(C)=O)[C@@H](OC(C)=O)[C@@H]1OC(C)=O.[I-] [Compound 80]    0.28
C#CC[N+]1(C)CCCN1.[I-] (stereo not drawn) [Compound 125]    0.466
CC(=O)OCC1OC(OCC[N+](C)(C)CF)C(OC(C)=O)C(OC(C)=O)C1OC(C)=O.[I-] (stereo in doubt) [Compound 79]    0.214
C[N+]1(CF)CCC[C@H]1CO.[I-] (stereo partly drawn) [Compound 109]    0.6

For the next question, use this molecule.
Need Papp A→B at 2 h, 1 µM, item C[N+](C)(CCO)C1CC1.[I-] [Compound 111]
0.8

* * *

Overview of reported bioavailability across a group of molecules:
assay: in vivo; set-up: species or system Sprague-Dawley rats; details: Sprague-Dawley, rat, po, 10 mg/kg
Numbers only; they are read as %.

C[N+](C)(CF)CCO[C@@H]1O[C@H](CO)[C@@H](O)[C@H](O)[C@H]1O.[Cl-] [Compound 98]    0.72
CC(=O)OC[C@H]1O[C@@H](OCC[N+](C)(C)C2CC2)[C@H](OC(C)=O)[C@@H](OC(C)=O)[C@@H]1OC(C)=O.[I-] [Compound 80]    0.68
CC(=O)OCC1OC(OCC[N+](C)(C)CF)C(OC(C)=O)C(OC(C)=O)C1OC(C)=O.[I-] (stereo in doubt) [Compound 79]    2.16
C#CC[N+](C)(C)CCO[C@@H]1O[C@H](COC(C)=O)[C@@H](OC(C)=O)[C@H](OC(C)=O)[C@H]1OC(C)=O.[I-] [Compound 7]    1.1

What value of bioavailability has been reported for the following molecule? CC(=O)OCC1OC(OCC[N+](C)(C)CCl)C(OC(C)=O)C(OC(C)=O)C1OC(C)=O.[I-] (stereo in doubt) [Compound 78]
0.99

* * *

target: CutC from Proteus mirabilis (Proteus mirabilis); experiment: Cell-based assay for TMA production from a native producer (P. mirabilis); conditions: d9-TMA from 1 mM d9-choline, 5 h, 37° C.; value 10 given when no fit or % TMA remaining at 10 μM higher than 15%; read-out: Average IC50 Whole cell P. mirabilis
Sequence (B4EYG1 entry or part of it): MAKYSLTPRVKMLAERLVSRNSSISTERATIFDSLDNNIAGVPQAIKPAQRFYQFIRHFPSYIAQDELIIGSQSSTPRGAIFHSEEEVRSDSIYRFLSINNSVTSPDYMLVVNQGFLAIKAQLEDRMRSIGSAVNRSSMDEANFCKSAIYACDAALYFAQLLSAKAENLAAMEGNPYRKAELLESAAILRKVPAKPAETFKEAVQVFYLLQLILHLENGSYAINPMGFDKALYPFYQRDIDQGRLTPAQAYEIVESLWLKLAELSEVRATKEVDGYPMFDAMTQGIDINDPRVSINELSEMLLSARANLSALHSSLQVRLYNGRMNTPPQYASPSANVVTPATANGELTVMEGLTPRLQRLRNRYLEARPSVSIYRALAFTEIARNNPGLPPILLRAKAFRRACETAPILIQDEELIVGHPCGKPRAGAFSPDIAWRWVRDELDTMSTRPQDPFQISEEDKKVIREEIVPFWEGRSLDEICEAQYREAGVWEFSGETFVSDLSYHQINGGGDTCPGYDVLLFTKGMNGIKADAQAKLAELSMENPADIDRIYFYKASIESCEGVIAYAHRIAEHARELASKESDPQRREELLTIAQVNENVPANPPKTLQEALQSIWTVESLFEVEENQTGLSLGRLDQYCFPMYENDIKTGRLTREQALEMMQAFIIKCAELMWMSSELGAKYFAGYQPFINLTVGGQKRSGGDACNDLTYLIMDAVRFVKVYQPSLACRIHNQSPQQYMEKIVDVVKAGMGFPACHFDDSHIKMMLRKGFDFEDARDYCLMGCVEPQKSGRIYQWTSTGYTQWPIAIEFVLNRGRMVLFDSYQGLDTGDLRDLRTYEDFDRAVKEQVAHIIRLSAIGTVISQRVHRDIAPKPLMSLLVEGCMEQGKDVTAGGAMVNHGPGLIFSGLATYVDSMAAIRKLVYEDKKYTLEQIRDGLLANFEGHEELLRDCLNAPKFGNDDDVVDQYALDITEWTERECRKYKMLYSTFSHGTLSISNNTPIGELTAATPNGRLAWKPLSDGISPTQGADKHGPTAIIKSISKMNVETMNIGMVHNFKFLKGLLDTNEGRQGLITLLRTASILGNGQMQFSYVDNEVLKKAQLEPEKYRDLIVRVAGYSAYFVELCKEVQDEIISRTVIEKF
Sequence (B4EYG0 entry or part of it, further chain): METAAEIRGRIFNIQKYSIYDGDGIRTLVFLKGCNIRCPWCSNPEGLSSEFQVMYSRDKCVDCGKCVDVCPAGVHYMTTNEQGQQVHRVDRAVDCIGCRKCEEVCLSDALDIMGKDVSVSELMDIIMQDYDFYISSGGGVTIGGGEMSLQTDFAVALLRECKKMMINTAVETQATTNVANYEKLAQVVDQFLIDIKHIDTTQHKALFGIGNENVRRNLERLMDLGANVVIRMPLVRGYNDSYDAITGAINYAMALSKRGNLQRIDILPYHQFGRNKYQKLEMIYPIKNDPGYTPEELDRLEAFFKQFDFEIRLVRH
pIC50 by entry:
The meaning of pIC50 here: minus log10 of the concentration in molar units.

C#CC[N+](C)(C)C[C@H](C)C(=O)O    5.90
C#CC[N+](C)(C)C[C@@H](C)C(=O)O    6.54
C#CC[N+](C)(C)CCC    6.18
C#CC[N+](C)(C)CCC(=O)NS(C)(=O)=O    6.39
C#CC[N+](C)(C)CSC    5.11

# query: pIC50 of entry C#CC[N+]1(C)CCC[C@H]1CO (stereo partly drawn)
5.66

Consider the molecule C#CC[N+](C)(C)CC(C)=O and give its measured pIC50.
5.30

Query (molecule): C#CC[N+](C)(C)CCO[C@@H]1O[C@H](COC(C)=O)[C@@H](OC(C)=O)[C@H](OC(C)=O)[C@H]1OC(C)=O.[I-] ; field requested: pIC50
5.50

I'd like to know its pIC50. The molecule in question is C[N+](C)(C)CCCC(=O)O
5.30

Fill in: pIC50 of C#CC[N+](C)(C)C[C@@H](C)C(=O)OC is ___
6.77

* * *

experiment: Pharmacokinetic study of colon contents and plasma after oral dose of conjugate; format: in vivo, male C57B3L/6 mice; conditions: male, C57B3L/6, mouse, in vivo, po
Consider the following compounds and their measured Cmax readings.
Entry rule: numbers only, all in nM.

CC(=O)OCC1OC(OCC[N+](C)(C)CCl)C(OC(C)=O)C(OC(C)=O)C1OC(C)=O.[I-] (stereo in doubt)    70

Bench note: what Cmax did CC(=O)OCC1OC(OCC[N+](C)(C)CF)C(OC(C)=O)C(OC(C)=O)C1OC(C)=O.[I-] (stereo in doubt) show?
5

* * *

assay: Caco-2 permeability assay; assay type: in vitro ADME; settings: human, pH 7.4; Caco-2, apical to basolateral, 1 μM, 2 hours, 37° C.; read-out: Papp A-B
MEASURED PROPERTY: Papp A→B at 2 h, 1 µM (×10⁻⁶ cm/s)
Kindly provide the numeric value in ×10⁻⁶ cm/s only, without the unit symbol.

C[N+](C)(CCO)CC1CC1.[Br-]    26.8
C#CC[N+](C)(C)CCO.[Br-]    11.1

Need Papp A→B at 2 h, 1 µM of C#CC[N+](C)(CF)CCO[C@@H]1O[C@H](COC(C)=O)[C@@H](OC(C)=O)[C@H](OC(C)=O)[C@H]1OC(C)=O (stereo partly drawn) , thanks.
0.218

* * *

Format: in vitro ADME
Settings: simulated gi fluid, 1 µM, pH 1.6
Method: This assay was used to assess the stability of a conjugate in a stomach. Medium was prepared by dissolving 2 g of sodium chloride in 0.6 L in ultrapure water (MilliQ®, Millipore Sigma, Darmstadt, Germany). The pH was adjusted to 1.6 with 1N hydrochloric acid, and the volume was then adjusted to 1 L with purified water. […] Test compounds were dissolved in DMSO stock to 1 mM. […] The resulting samples were analyzed by LCMS to determine degradation rates in SGF.
Counter-ions that a name gives are not always drawn.
Reported Assay 1- FaSSGF Stability: % Remaining at 1 hr values follow for various compounds
Kindly provide the numeric value in % only, without the unit symbol.

Record excerpt, results attached:
CC(=O)OC[C@H]1O[C@@H](OCC[N+](C)(C)C2CC2)[C@H](OC(C)=O)[C@@H](OC(C)=O)[C@@H]1OC(C)=O.[I-]    145.32
C#CC[N+](C)(C)CC(=O)O[C@H]1CO[C@H]2[C@@H]1OC[C@H]2O.O=C([O-])C(F)(F)F    98.36
C#CC[N+](C)(C)CCO[C@@H]1O[C@H](COC(=O)CCC)[C@@H](OC(=O)CCC)[C@H](OC(=O)CCC)[C@H]1OC(=O)CCC.[I-]    84.79
Br.C#CC[N+](C)(C)CC(=O)O[C@@H]1CO[C@H]2[C@@H]1OC[C@@H]2O    107.49
C#CC[N+](C)(C)CCO[C@@H]1CO[C@H]2[C@@H]1OC[C@@H]2O [Compound 72, trifluoroacetate]    102.71

With those in mind, consider the next compound.
For C#CC[N+](C)(C)CC(=O)O[C@@H]1O[C@H](COC(C)=O)[C@@H](OC(C)=O)[C@H](OC(C)=O)[C@H]1OC(C)=O [Compound 303, Trifluoroacetate] , what is its reported Assay 1- FaSSGF Stability: % Remaining at 1 hr?
60.49

* * *

format: in vitro ADME; settings: 1 µM
MEASURED PROPERTY: Assay 3- Colonic Material Stability Assay % Remaining at 24 hr (%)
Reply numerically in %, unit not repeated.

Consider the worked cases shown below.
CC(=O)OC[C@H]1O[C@@H](OCC[N+](C)(CF)C2CC2)[C@H](OC(C)=O)[C@@H](OC(C)=O)[C@@H]1OC(C)=O.[I-] (stereo partly drawn)    56
C#CC[N+](C)(C)CCO[C@@H]1O[C@H](COC(=O)CCC)[C@@H](OC(=O)CCC)[C@H](OC(=O)CCC)[C@H]1OC(=O)CCC.[I-]    80

Which value of Assay 3- Colonic Material Stability Assay % Remaining at 24 hr has been reported for C#CC[N+](C)(C)CC(=O)OC[C@H]1OC(OC(C)=O)[C@H](OC(C)=O)[C@@H](OC(C)=O)[C@@H]1OC(C)=O.O=C([O-])C(F)(F)F (stereo partly drawn) in the records?
0.94

* * *

This section presents compounds with their documented IC50 values.
molecular target: CutC from Proteus mirabilis (Proteus mirabilis); experiment: Cell-based assay for TMA production from a native producer (P. mirabilis); conditions: d9-TMA from 1 mM d9-choline, 5 h, 37° C.; value 10 given when no fit or % TMA remaining at 10 μM higher than 15%; read-out: Average IC50 Whole cell P. mirabilis

Fill in: IC50 of C#CC[N+](C)(C)CC1(C(=O)OC)CC1 is ___
1.28 µM

What does the record list as IC50 for C#CC[N+](C)(C)CC(=C)C [Compound 208, 2,2,2-trifluoroacetate] ?
> 10 µM

Quick one: IC50 for C#CC[N+]1(CC#C)CCCN1 ?
> 10 µM

Dear colleague, I am looking for the recorded IC50 of the following compound: C=C(C[N+](C)(C)CC#N)C(=O)OC
> 10 µM
